Listed here: items and their measured EC50.
Test system: UFH
TEST METHOD NOTES: FXa amidolytic assay (Example 10), UFH
CONDITION SET: read-out: Heparin FXa uM EC50; UFH 0.03 units/mL; human antithrombin, bovine Factor Xa
OBSERVATION TYPE: EC50 (µM)

[[record]]
given_smiles = "COc1ccc(NC(=O)[C@@H](CCCNC(=N)N)NC(=O)c2cc(NC(=O)[C@@H](CCCNC(=N)N)NC(=O)c3cc(NC(=O)[C@@H](CCCNC(=N)N)NC(=O)c4cc(NC(=O)[C@H](N)CCCNC(=N)N)ccc4OC)ccc3OC)ccc2OCC(=O)O)cc1C(N)=O"
observation_type = "EC50"
result_comparator = "="
measured = 0.108

[[record]]
given_smiles = "COc1cc(OCC(N)=O)c(C(=O)N[C@H]2CC[C@H](NC(=O)c3cc(C(=O)NCCN(C)C)c(OCCCCCN)cc3OCCCCCN)CC2)cc1C(=O)N[C@H]1CC[C@H](NC(=O)c2cc(C(=O)NCCN(C)C)c(OCCCCCN)cc2OCCCCCN)CC1"
observation_type = "EC50"
result_comparator = "="
measured = 0.13

[[record]]
given_smiles = "COc1cc(OC)c(C(=O)N[C@H]2CC[C@@H](NC(=O)c3cc(C(=O)N[C@H]4CC[C@@H](N=C(N(C)C)N(C)C)CC4)c(OC)cc3OC)CC2)cc1C(N)=O"
observation_type = "EC50"
result_comparator = ">"
measured = 20

[[record]]
given_smiles = "COc1ccc(NC(=O)[C@H](CCCCN)NC(=O)c2cc(NC(=O)[C@H](CCCCN)NC(=O)c3cc(NC(=O)[C@H](CCCCN)NC(=O)c4cc(NC(=O)[C@@H](N)CCCCN)ccc4OC)ccc3OC)ccc2OCC(=O)O)cc1C(=O)N[C@@H](Cc1c[nH]c2ccccc12)C(N)=O"
observation_type = "EC50"
result_comparator = "="
measured = 0.153

[[record]]
given_smiles = "COc1ccc(NC(=O)[C@H](CCCCCN)NC(=O)c2cc(NC(=O)[C@H](CCCCCN)NC(=O)c3cc(NC(=O)[C@H](CCCCCN)NC(=O)c4cc(NC(=O)[C@@H](N)CCCCCN)ccc4OC)ccc3OC)ccc2OC)cc1C(N)=O"
observation_type = "EC50"
result_comparator = "="
measured = 0.364

[[record]]
given_smiles = "COc1cc(OC)c(C(=O)N2CCC(NC(=O)c3cc(C(=O)NC4CCN(C(=O)c5cc(C(=O)NCCN)c(OC)cc5OC)CC4)c(OC)cc3OC)CC2)cc1C(=O)NCCN"
observation_type = "EC50"
result_comparator = ">"
measured = 20

[[record]]
given_smiles = "COc1ccc(NC(=O)[C@@H](CCCNC(=N)N)NC(=O)c2cc(NC(=O)[C@@H](CCCNC(=N)N)NC(=O)c3cc(NC(=O)[C@@H](CCCNC(=N)N)NC(=O)c4cc(NC(C)=O)ccc4OC)ccc3OC)ccc2OCC(=O)O)cc1C(=O)N[C@H](Cc1c[nH]c2ccccc12)C(=O)O"
observation_type = "EC50"
result_comparator = "="
measured = 0.236

[[record]]
given_smiles = "COc1cc(OC)c(C(=O)N[C@H]2CC[C@@H](NC(=O)c3ccc(OCCCCCN)cc3OCCCCCN)CC2)cc1C(=O)N[C@H]1CC[C@@H](NC(=O)c2ccc(OCCCCCN)cc2OCCCCCN)CC1"
observation_type = "EC50"
result_comparator = "="
measured = 0.411

[[record]]
given_smiles = "COc1ccc(NC(=O)[C@@H](CCCNC(=N)N)NC(=O)c2cc(NC(=O)[C@@H](CCCNC(=N)N)NC(=O)c3cc(NC(=O)[C@@H](CCCNC(N)=O)NC(=O)c4cc(NC(=O)[C@H](N)CCCNC(N)=O)ccc4OC)ccc3OC)ccc2OC)cc1C(N)=O"
observation_type = "EC50"
result_comparator = "="
measured = 0.677

[[record]]
given_smiles = "COc1ccc(NC(=O)[C@H](CCCNC(=N)N)NC(=O)c2cc(NC(=O)[C@H](CCCNC(=N)N)NC(=O)c3cc(NC(=O)[C@H](CCCNC(=N)N)NC(=O)c4cc(NC(C)=O)ccc4OC)ccc3OC)ccc2OC)cc1C(=O)N[C@@H](Cc1c[nH]c2ccccc12)C(=O)O"
observation_type = "EC50"
result_comparator = "="
measured = 0.242

[[record]]
given_smiles = "COc1ccc(NC(=O)[C@@H](CCCNC(N)=O)NC(=O)c2cc(NC(=O)[C@@H](CCCNC(N)=O)NC(=O)c3cc(NC(=O)[C@@H](CCCNC(=N)N)NC(=O)c4cc(NC(=O)[C@H](N)CCCNC(N)=O)ccc4OC)ccc3OC)ccc2OC)cc1C(N)=O"
observation_type = "EC50"
result_comparator = ">"
measured = 10

